molecular target: O-acetylserine sulfhydrylase (Mycobacterium tuberculosis) (UniProt P9WP55); experiment: Inhibition of Mycobacterium tuberculosis CysK1 using O-acetyl-L-serine as substrate assessed as L-cycteine formation at 100 uM after 5 mins by spectrophotometric analysis relative to control
Response key: met means inhibition >= 70%; not met means inhibition < 70%.

Please review the entries below; each comes with its answer.
# MOLECULE, CLASS ASSIGNMENT
rows = [
    ("COc1ccc(C2NC(=O)N=C3C2C(=O)N=C2SC([N+](=O)[O-])=CN23)cc1 (centres undefined)", "met"),
    ("Cc1ccccc1C1NC(=S)N=C2C1C(=O)N=C1SC([N+](=O)[O-])=CN12 (centres undefined)", "not met"),
    ("COc1cc(C2NC(=O)N=C3C2C(=O)N=C2SC([N+](=O)[O-])=CN23)ccc1O (centres undefined)", "met"),
    ("COc1ccc(C2NC(=S)N=C3C2C(=O)N=C2SC([N+](=O)[O-])=CN23)cc1 (centres undefined)", "not met"),
    ("CN(C)c1ccc(C2NC(=S)N=C3C2C(=O)N=C2SC([N+](=O)[O-])=CN23)cc1 (centres undefined)", "met"),
    ("O=C1N=C2C(C(=O)N=C3SC([N+](=O)[O-])=CN32)C(c2ccccc2[N+](=O)[O-])N1 (centres undefined)", "met"),
]

Now for a further molecule.
q: API: above_or_equal(metric=inhibition, cutoff=70%) for item O=C1N=C2C(C(=O)N=C3SC([N+](=O)[O-])=CN32)C(c2ccc(Cl)cc2)N1 (centres undefined)
a: met

* * *

experiment: Cytotoxicity against HEK293T cells assessed as growth inhibition at 50 uM by MTT assay relative to control; assay type: cell-based, HEK-293T; details: human, read-out: GI
Listed here are compounds together with their documented inhibition at 50 µM.
Kindly write the number and append the unit.

Check out these entries, answers already filled in.
# COMPOUND, inhibition at 50 µM
records = [
    ("O=C1N=C2SC([N+](=O)[O-])=CN2C2=NC(=S)NC(c3ccccc3C(F)(F)F)C12 (stereo not given)", "52.2%"),
    ("O=C1N=C2C(C(=O)N=C3SC([N+](=O)[O-])=CN32)C(c2ccc(Cl)cc2)N1 (stereo not given)", "0%"),
    ("O=C1N=C2SC([N+](=O)[O-])=CN2C2=NC(=S)NC(c3ccc(F)cc3)C12 (stereo not given)", "43.4%"),
    ("Cc1ccccc1C1NC(=S)N=C2C1C(=O)N=C1SC([N+](=O)[O-])=CN12 (stereo not given)", "18.8%"),
    ("O=C1N=C2SC([N+](=O)[O-])=CN2C2=NC(=S)NC(c3ccccc3)C12 (stereo not given)", "25.3%"),
]

q: Indicate the recorded inhibition at 50 µM value for this compound: COc1ccc(C2NC(=S)N=C3C2C(=O)N=C2SC([N+](=O)[O-])=CN23)cc1 (stereo not given)
a: 14.6%

* * *

assay: Cytotoxicity against HEK293T cells assessed as growth inhibition at 50 uM by MTT assay relative to control; assay type: cell-based, HEK-293T; details: human, read-out: GI
PARAMETER MEASURED: inhibition at 50 µM
Kindly write the number and append the unit.

# COMPOUND, READING
records = [
    ("O=C1N=C2SC([N+](=O)[O-])=CN2C2=NC(=S)NC(c3c(Cl)cccc3Cl)C12 (centres undefined)", "30.7%"),
    ("O=C1N=C2C(C(=O)N=C3SC([N+](=O)[O-])=CN32)C(c2ccc(Br)cc2)N1 (centres undefined)", "11.2%"),
    ("COc1cc(C2NC(=S)N=C3C2C(=O)N=C2SC([N+](=O)[O-])=CN23)ccc1O (centres undefined)", "1.35%"),
    ("O=C1N=C2C(C(=O)N=C3SC([N+](=O)[O-])=CN32)C(c2ccccc2O)N1 (centres undefined)", "0%"),
    ("CN(C)c1ccc(C2NC(=O)N=C3C2C(=O)N=C2SC([N+](=O)[O-])=CN23)cc1 (centres undefined)", "4.9%"),
]

q: Indicate the recorded inhibition at 50 µM value for this compound: Cc1ccc(C2NC(=O)N=C3C2C(=O)N=C2SC([N+](=O)[O-])=CN23)cc1 (centres undefined)
a: 0%

q: Indicate the recorded inhibition at 50 µM value for this compound: O=C1N=C2SC([N+](=O)[O-])=CN2C2=NC(=S)NC(c3ccc([N+](=O)[O-])cc3)C12 (centres undefined)
a: 6.6%

// provenance: ChEMBL document CHEMBL2321837
